B1: LOXL2 (parent)
chain: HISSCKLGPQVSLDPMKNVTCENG

- Variants of: B1
- measurementProtocol: protein stability index of a GFP-peptide fusion (GPS, HEK-293T) (PSI 1-6); higher = more stable;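 further: lentivirally expressed fusions sorted by FACS into six bins by GFP to DsRed ratio, PSI derived from sequencing read proportions per bin multiplied by bin number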
- details: c terminus: a fixed tail appended
reportedEndpoint: protein stability index
Answer field: number only, no words.

Query: Which measured protein stability index value corresponds to HISSCKLGPQPSLDPMKNVTCENG [V11P] ?
Reply: 4.34

Query: Okay, and HISSCTLGPQVSLDPMKNVTCENG [K6T] ?
Reply: 4.36

Query: Okay, and HISSCKLGPQVSLDTMKNVTCENG [P15T] ?
Reply: 4.14

Query: Okay, and HISSCKLGPQVSLDDMKNVTCENG [P15D] ?
Reply: 4.19

Query: Okay, and NISSCKLGPQVSLDPMKNVTCENG [H1N] ?
Reply: 4.52

Query: Okay, and HISSCKLGPQVSLDPMKNVVCENG [T20V] ?
Reply: 3.83

Query: Okay, and FISSCKLGPQVSLDPMKNVTCENG [H1F] ?
Reply: 2.01

Query: Okay, and HISSCKLCPQVSLDPMKNVTCENG [G8C] ?
Reply: 3.15

Query: Okay, and HISSCKLGPQFSLDPMKNVTCENG [V11F] ?
Reply: 3.56

Query: Okay, and HISSCKLGPQVSLDPMKNWTCENG [V19W] ?
Reply: 2.99

Query: Okay, and HIFSCKLGPQVSLDPMKNVTCENG [S3F] ?
Reply: 2.94

Query: Okay, and HISSCKLGPQVTLDPMKNVTCENG [S12T] ?
Reply: 4.34

Query: Okay, and HISSCKLGPQVSLDPMKNVTCEGG [N23G] ?
Reply: 3.85

Query: Okay, and HISSCKLGPQCSLDPMKNVTCENG [V11C] ?
Reply: 4.27

Query: Okay, and HISSCKLGPQVSLDPMFNVTCENG [K17F] ?
Reply: 2.97

Query: Okay, and HISSCKLGPQVSLDPMENVTCENG [K17E] ?
Reply: 4.28

Query: Okay, and HISSSKLGPQVSLDPMKNVTCENG [C5S] ?
Reply: 4.66

Query: Okay, and HISSGKLGPQVSLDPMKNVTCENG [C5G] ?
Reply: 4.17

Query: Okay, and WISSCKLGPQVSLDPMKNVTCENG [H1W] ?
Reply: 3.42

Query: Okay, and HISSCKLGPQVSLDPMKNVTWENG [C21W] ?
Reply: 3.75

Query: Okay, and HISSCKLGPQVSLDPVKNVTCENG [M16V] ?
Reply: 4.34

Query: Okay, and HISSCKLGPQVSSDPMKNVTCENG [L13S] ?
Reply: 4.45
